For each of the molecules below, state its TGI.
Tested on: SR leukemia
Assay: NCI tumour cell line growth inhibition, 48 h

What does the record list as TGI for CSc1nc(C)cc(N(C)c2ccccc2)n1 ?
60.7 µM

// same read-out, input: O=C(/C=C\c1cccc([N+](=O)[O-])c1)c1ccccc1
> 100 µM

// same read-out, input: O=C(O)c1cnccc1-c1cc(=O)[nH]n1-c1ccccc1
> 100 µM

// same read-out, input: O=C(O)c1ccc([N+](=O)[O-])c(P(=O)(O)O)c1
> 100 µM

// same read-out, input: CCN(CC)/[N+]([O-])=N/OC
> 100 µM

// same read-out, input: CC(=O)OCC1OC(O[C@@H]2C[C@H]3C(C)(C)[C@H](OC(C)=O)CC[C@]3(C)[C@H]3CC[C@@]45C[C@H](O)C[C@H](C)[C@@H]4CC=C5[C@@]32C)C(O)C(O)C1O (some centres undefined)
4.27 µM

// same read-out, input: Cn1c(=O)c(Sc2ccccc2F)cc2cnc(NC3CCOCC3)nc21
> 25 µM

// same read-out, input: NC(Cc1cc(Br)c(O)c(Br)c1)C(=O)O (centres undefined)
> 100 µM

// same read-out, input: CCC(C)[C@H]1C(=O)N=C(N)N1C(=O)OCc1ccccc1 (some centres undefined)
> 100 µM

====

System: A549 NSCLC
Assay: NCI tumour cell line growth inhibition, 48 h
outcomeMeasure: TGI

What does the record list as TGI for O=P(O)(O)OP(=O)(O)O ?
> 100 µM

// same read-out, input: CCCCCCCCCCCCCCCCc1c(C(=O)OC)[nH]c(=S)[nH]c1=O
> 50 µM

// same read-out, input: C/C(=C/CNc1ncnc2c1ncn2CCC(=O)O)CO
> 100 µM

// same read-out, input: O=[N+]([O-])c1nccn1CCCN=c1c2ccccc2n(O)c2ccccc12
> 100 µM

// same read-out, input: Cn1c(=O)c(Sc2ccccc2F)cc2cnc(NC3CCOCC3)nc21
> 25 µM

// same read-out, input: O=C1OC(C2Cc3cc4c(cc3C2=O)CCC4)c2ccccc21 (stereo unspecified)
> 100 µM

====

System: MDA-MB-435
Assay: NCI tumour cell line growth inhibition, 48 h
outcomeMeasure: TGI

What does the record list as TGI for CCCCC(SC(=S)N(CC)CC)C(=O)Nc1nc(CC(=O)OCC)cs1 (stereo not drawn) ?
> 100 µM

// same read-out, input: CCOC(=O)CSc1[nH]c2nc(C)nc(Cl)c2c1C#N
> 10 µM

// same read-out, input: Cc1cc(C)c2c(=O)n(CN3CCN(c4ccccc4)CC3)sc2n1
> 100 µM

====

Tested on: SK-MEL-2 melanoma
Assay: NCI tumour cell line growth inhibition, 48 h
For each of the compounds below, state its TGI.

What does the record list as TGI for Cc1ccc(NC(=O)C2C(=O)C(=O)N(c3ccc(C)cc3)C2=O)cc1 (stereo not drawn) ?
> 100 µM

// same read-out, input: CCOC(=O)[C@H](Cc1ccccc1)NC(=O)c1nc[nH]c1[N+](=O)[O-]
> 100 µM

// same read-out, input: CCOC(=O)c1c(N2CCOCC2)[nH]c(=O)c(C(c2c(O)c(C(=O)OCC)c(N3CCOCC3)[nH]c2=O)C(C)C)c1O
> 100 µM

====

Tested on: M14 melanoma
Test: NCI tumour cell line growth inhibition, 48 h
outcomeMeasure: TGI

# query: TGI | item Oc1ccc(Cl)cc1Cc1cc(Cl)cc(Cc2cc(Cl)ccc2O)c1O | system: M14 melanoma
6.71 µM

// same read-out, input: CC(=O)NC(ON1C(=O)COc2ccccc21)C(Cl)(Cl)Cl (stereo not drawn)
> 100 µM

// same read-out, input: C[C@@]12CCC[C@@](C)(C(=O)O)C1CC[C@]13C=C(CO)[C@](O)(CCC12)C3 (stereo partly drawn)
> 100 µM

====

Test system: TK-10 renal
Experiment: NCI tumour cell line growth inhibition, 48 h
outcomeMeasure: TGI

What does the record list as TGI for CCOC(=O)c1c(N2CCOCC2)[nH]c(=O)c(C(c2c(O)c(C(=O)OCC)c(N3CCOCC3)[nH]c2=O)C(C)C)c1O ?
> 100 µM

// same read-out, input: COC(=O)C(C(=O)C(=O)Nc1c(Cl)cc([N+](=O)[O-])cc1Cl)c1nc2cc(C)c(C)cc2[nH]c1=O (stereo not drawn)
> 100 µM

// same read-out, input: CCc1ccc(/C(C#N)=C/C=C/c2ccccc2)cc1
> 100 µM

====

Test system: SK-MEL-5 melanoma
Experiment: NCI tumour cell line growth inhibition, 48 h; in the data active means GI50 below about 0.43 µM; inactive means the rest
Respond only with the outcome that fits, drawn from active, inactive

Outcome logged for CN(C)c1cc2c(cc1Sc1nc3c(N)nccc3n1CCNCC(C)(C)C)OCO2 in this assay:
inactive

// same read-out, input: O=C(/C=C\c1cccc([N+](=O)[O-])c1)c1ccccc1
inactive

// same read-out, input: COc1cc2c3c(n(CCCN=[N+]=[N-])c(=O)c2cc1OC)-c1ccc(N)cc1C3=O
active

// same read-out, input: C[C@H]1O[C@@H](O[C@H]2[C@@H](O)C[C@H](O[C@H]3[C@@H](O)C[C@H](O[C@H]4CC[C@]5(C)C6C[C@@H](O)[C@]7(C)[C@@H](C8=CC(=O)OC8)CC[C@]7(O)C6CC[C@@H]5C4)O[C@@H]3C)O[C@@H]2C)C[C@H](O)[C@@H]1O (stereo not given in full)
active

// same read-out, input: C=CC[Se]C(=O)c1ccccc1OC(C)=O
inactive

// same read-out, input: CCS(=O)(=O)c1ccc(OC)c(Nc2ncc(-c3cccc(-c4ccccc4F)c3)o2)c1
inactive

// same read-out, input: COc1ccc(S(=O)(=O)Nc2cc(/C=C\c3cc(OC)c(OC)c(OC)c3)cc(OC)c2OC)cc1OC
inactive

// same read-out, input: O=C(/C=C/c1ccccc1Cl)c1ccc(O)cc1
inactive

// same read-out, input: COc1cc(C2=Nc3c/c(=C\c4c(O)[nH]c5ccc(Cl)cc45)ccc3=N2)cc(OC)c1OC
inactive

// same read-out, input: COc1cccc(C2=NN(C(C)=O)C(c3cc(OC)c(OC)c(OC)c3)C2)c1 (stereo not given)
inactive

// same read-out, input: COC(=O)C1=C2C3=C(C(=O)c4ccccc4C3=O)N(Cc3ccccc3)C2(OC(C)=O)C=CC1=O (stereo not given)
inactive

// same read-out, input: O=[N+]([O-])c1ccc(Oc2cccnc2)c([N+](=O)[O-])c1
inactive

// same read-out, input: O=C(O[C@H]1CN[C@H](C#Cc2cc3ncnc(Nc4ccc(Cc5ccccc5)cc4)c3s2)C1)N1CCOCC1
inactive

// same read-out, input: [Ce+3].[Cl-].[O-]/N=C(\c1ccccc1)c1ccccn1.[O-]/N=C(\c1ccccc1)c1ccccn1.[O-]/N=C(\c1ccccc1)c1ccccn1
inactive

// same read-out, input: C=C1C(=O)O[C@H]2[C@H]1CC/C(COC(=O)NCc1c[nH]c3ccc(OC)cc13)=C\CC[C@@]1(C)O[C@@H]21
inactive

====

System: NCI-H23 lung
Assay: NCI tumour cell line growth inhibition, 48 h
For each of the molecules below, state its TGI.

What does the record list as TGI for CCOC(=O)CC(=O)N(c1ccc(OC)cc1)C(C(=O)OC)c1ccccc1 (configuration not stated) ?
> 100 µM

// same read-out, input: O=S1Cc2ccccc2CS1 (configuration not stated)
28.3 µM

// same read-out, input: CCCCCCCCC(=O)CCCCCCCCC(=O)O
85.8 µM

// same read-out, input: COc1cc(/C=C2/C[C@H]3[C@@H]4CCC5=CC(=O)CC[C@]5(C)[C@H]4CC[C@]3(C)NC2=O)cc(OC)c1OC
57.3 µM

// same read-out, input: Cc1ccccc1NC(=O)N/C(N)=N/c1nc2ccccc2s1
> 100 µM

// same read-out, input: O=c1oc2c(Br)c(O)c(Br)cc2c2ccccc12
38.6 µM

// same read-out, input: CNC(=O)c1cc(Oc2ccc3nc(NC(=O)c4cc(C(F)(F)F)cc(C(F)(F)F)c4)sc3c2)ccn1
17.7 µM

// same read-out, input: CN(C)c1cc2c(Nc3ccc4nc(Cc5ccccc5)[nH]c4c3)ncnc2cn1
> 25 µM

// same read-out, input: NC(=S)SC1=NNC2(C(=O)N1)c1ccccc1-c1ccccc12
> 10 µM

// same read-out, input: COc1ccc(C2=C(Br)C(=O)OC2)cc1Cl
> 100 µM

// same read-out, input: CSc1sc(C)cc1-c1nsc(=O)o1
> 100 µM

// same read-out, input: Cc1cc(=O)[nH]c(CNC(=O)c2cccc3ccccc23)n1
> 100 µM

// same read-out, input: CC(C)c1ccc2c(c1)[C@@]1(C)CC[C@H](C)C(C)(C)C1CC2 (some centres not stated)
35.6 µM

// same read-out, input: CCCCCCOC(=O)C(N)Cc1ccc(OC)cc1 (configuration not stated)
> 100 µM

// same read-out, input: O=C(O)C(F)(OC(F)(F)C(F)(F)C(F)(F)F)C(F)(F)F (configuration not stated)
> 100 µM

// same read-out, input: C=CC[Se]C(=O)c1ccccc1OC(C)=O
4.57 µM

// same read-out, input: COC(=O)C1=C(C(=O)Nc2cccnc2)C2OC1(C(Cc1ccccc1)Oc1ccccc1)C1OC21 (configuration not stated)
29.1 µM

// same read-out, input: Nc1nn(C(=O)Nc2ccc(Cc3ccccc3)cc2)c2ccc(Cl)cc12
> 82.7 µM

// same read-out, input: CC12Oc3ccc4ccccc4c3C1c1c(ccc3ccccc13)O2 (configuration not stated)
> 100 µM

// same read-out, input: CC(C)=C1C(=O)C[C@]2(C)C/C=C(\C)CC/C=C(\C)CC[C@@H]12
23.9 µM

// same read-out, input: CC(C)[C@@H]1NC(=O)[C@]2(C)CSC(=N2)c2csc(n2)CNC(=O)C[C@@H](/C=C/CCS)OC1=O
> 30.6 µM

// same read-out, input: O=C1OCC2=C1C(c1cccc([N+](=O)[O-])c1)c1cc3c(cc1N2CCO)CCC3 (configuration not stated)
> 50 µM

// same read-out, input: CC(=O)c1cc2c3c(c1)c1cc4c(cc1c(=O)n3CC2)OCO4
> 100 µM

// same read-out, input: CCN(CC)/[N+]([O-])=N/OC
> 100 µM

// same read-out, input: Cc1cc(C)c2c(=O)n(CN3CCN(c4ccccc4)CC3)sc2n1
85.2 µM

// same read-out, input: COc1ccc(Cc2nc3cc(Cl)ccc3o2)cc1
> 100 µM

// same read-out, input: N#Cc1ccc(Nc2cnc3cc(N)ccc3n2)cc1
> 100 µM

// same read-out, input: COc1cccc(/C=N/[N-]C(N)=O)c1[O-].[Cu+2].[OH3+].c1cnc2c(c1)ccc1cccnc12
15.8 µM

// same read-out, input: CCOc1cc(NC(C)=O)ccc1C(=O)N/N=C/c1ccco1
> 100 µM

// same read-out, input: C=CC1(c2ccc(Cl)c(Cl)c2)OCCO1
> 100 µM

// same read-out, input: Clc1cccc(Cn2cc(Cc3cn(Cc4cccc(Cl)c4)c4ccccc34)c3ccccc32)c1
> 100 µM

// same read-out, input: Cn1nc(-c2ccccc2)c(C(=O)/C=C/c2ccccc2)c(N2CCCCC2)c1=O
> 100 µM

// same read-out, input: CCOC(=O)NC(=O)c1cn(CCCCCCCCCCC(=O)N2CCN(CCn3cc(C(=O)NC(=O)OCC)c(=O)[nH]c3=O)CC2)c(=O)[nH]c1=O
> 100 µM

// same read-out, input: O=[n+]1cnn([O-])c2ccccc21
> 100 µM

// same read-out, input: COC(=O)C1=C(O)C(C(=O)OC)[C@]2(O)[C@H](C(=O)OC)[C@H]1C[C@@H](c1ccccc1OC)[C@H]2C(=O)OC (some centres not stated)
14.8 µM

// same read-out, input: CC(=O)Oc1ccn2nc(C)c(Cc3c(C)nn4ccc(OC(C)=O)cc34)c2c1
> 100 µM

// same read-out, input: C/C=C/C=C/C1=NN(c2cccc(S(=O)(=O)O)c2)C2(C1)C(Cl)C(=O)N2c1nc2ccccc2s1 (configuration not stated)
32.1 µM
